assay: Cytotoxicity against rat skeletal myoblast L6 cells; assay type: cell-based; conditions: rat
Each entry below lists one item and its recorded pIC50 value.
Just so you know, pIC50 here is -log10 of the concentration in molar units; reply with that number alone.

Look over these answered cases.
[
  {
    "Compound": "CC[C@H]1[C@@H]2CCN3CC[C@@]4(C(=C2C(=O)OC)Nc2ccccc24)[C@@H]13 [Compound 13, tubotaiwine]",
    "Quantitative Readout": 3.70
  },
  {
    "Compound": "C=C[C@H]1[C@H](O[C@@H]2O[C@H](CO)[C@@H](O)[C@H](O)[C@H]2O)OC=C(C(=O)OC)[C@H]1CC(=O)O [Compound 16, secoxyloganin]",
    "Quantitative Readout": 3.53
  }
]

Let us move to another entry and its pIC50.
**Q:** What does the record list as pIC50 for COC(=O)[C@@H]1CC23CCCN4CC[C@@]5(c6ccccc6N(C(=O)OC)C15CC2)[C@@H]43 (stereo partly drawn) [Compound 11, pleiocarpine] ?
**A:** 3.81
